# experimental-system: Glucose-dependent insulinotropic receptor (Homo sapiens) (UniProt Q8TDV5)
# Sequence (Q8TDV5 whole entry, looked up): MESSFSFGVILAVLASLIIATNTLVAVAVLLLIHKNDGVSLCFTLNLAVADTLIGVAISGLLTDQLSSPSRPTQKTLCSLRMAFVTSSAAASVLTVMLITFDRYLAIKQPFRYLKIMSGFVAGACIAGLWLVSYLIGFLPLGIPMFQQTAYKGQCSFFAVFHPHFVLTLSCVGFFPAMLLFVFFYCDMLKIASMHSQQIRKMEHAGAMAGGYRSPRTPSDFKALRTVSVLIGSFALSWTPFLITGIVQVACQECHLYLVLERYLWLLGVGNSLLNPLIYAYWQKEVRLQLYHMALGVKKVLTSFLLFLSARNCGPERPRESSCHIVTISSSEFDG
# experimental-protocol: off-target GPR119 activation – cell-based, PathHunter beta-arrestin, luminescence, triplicate, counter-screen for GPR151 activator project (AID 1508611);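 note: counterscreen on off-target GPR119 to flag nonselective hits from the GPR151 activator screen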
# assay-context: GPR119 PathHunter beta-arrestin cells, 90 min, at 11.2 µM, stronger effect = higher value, 0 = compound-well median, 100 = enzyme-acceptor control
About 20 (0.3%) of roughly 6,700 compounds were called active. Many of the other results were omitted from the sample, so actives are more common in it than they were.
Please provide measured activation for the entries that follow.
# number only, unit % dropped from output

// Cc1cccc(-n2nc3c(c2NC(=O)CCC2CCCCC2)CS(=O)(=O)C3)c1C : activation value = 7.21

// CCOC(=O)C1=CN(C)C=C(C(=O)OCC)C1c1ccc(OC)cc1 : activation value = 7.33

// CCCCOC(=O)C1=C(C)NC2=C(C(=O)CCC2)C1c1cccc([N+](=O)[O-])c1 (centres undefined) : activation value = -13.7

// O=C(CC1C(=O)NCCN1C(=O)c1ccc([N+](=O)[O-])cc1)Nc1cccc(Cl)c1 (centres undefined) : activation value = 8.78

// COCCn1c(C)cc(C(=O)CSc2nnc(-c3ccccc3)o2)c1C : activation value = 0.76

// CC1=C(C(=O)Nc2cccc(F)c2)C(c2ccccn2)C2=C(CCCC2=O)N1 (centres undefined) : activation value = 0.3

// O=C(Nc1ccc(NC(=O)c2cccc3c(Br)cccc23)cc1)c1ccco1 : activation value = 16.8

// CCOC(=O)c1cc2cc(-c3c(C)oc4cc(OC(C)=O)ccc4c3=O)ccc2o1 : activation value = -2.06

// Cc1cccc(NC(=O)CSc2nc3[nH]ncc3c(=O)[nH]2)c1 : activation value = 0.57

// CSc1ncc(C(=O)NCCc2c[nH]c3ccccc23)c(C)n1 : activation value = -0.1

// C[C@H]1Cc2c(COc3ccccc3)nc3c(c2CO1)CN(C(=O)NCc1ccco1)CC3 : activation value = 9.06

// CCOC(=O)c1ccc2nc(NC(=O)CSc3nc4ccccc4[nH]3)sc2c1 : activation value = 6.61

// Cc1ccc(NC(=O)c2cccc(N(C)C)c2)cc1NC(=O)c1ccc(O)cc1 : activation value = -0.12

// CCOC(=O)Cc1coc(NC(=O)c2ccc(Cl)cc2)n1 : activation value = 16.4
